- target or system: UniProt:P40107
- Sequence (P40107 whole entry): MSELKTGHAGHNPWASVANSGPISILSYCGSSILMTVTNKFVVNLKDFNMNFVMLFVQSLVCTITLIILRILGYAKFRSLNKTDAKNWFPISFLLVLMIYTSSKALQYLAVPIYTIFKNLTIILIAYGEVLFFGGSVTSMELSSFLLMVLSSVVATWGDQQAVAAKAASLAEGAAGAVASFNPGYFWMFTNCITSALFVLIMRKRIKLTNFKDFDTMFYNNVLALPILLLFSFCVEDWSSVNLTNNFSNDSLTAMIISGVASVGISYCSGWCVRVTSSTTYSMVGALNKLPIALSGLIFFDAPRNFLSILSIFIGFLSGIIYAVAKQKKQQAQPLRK
- assay details: Competition / IC50 of 3H-GMP uptake into wild type Vrg4 proteoliposomes
- Type: biochemical
- experimental parameters: competition assay, n=4
endpoint label: Competition of transport (recognition by the binding site)

- molecule: "Nc1nc2c(ncn2[C@@H]2O[C@H](COP(=O)(O)OP(=O)(O)O)[C@@H](O)[C@H]2O)c(=O)[nH]1 [GDP]"
  result: "can also compete"
- molecule: "C[C@@H]1O[C@H](OP(=O)(O)OP(=O)(O)OC[C@H]2O[C@@H](n3cnc4c(=O)[nH]c(N)nc43)[C@H](O)[C@@H]2O)[C@@H](O)[C@H](O)[C@@H]1O [GDP-F, GDP-fucose]"
  result: "can also compete"
- molecule: "Nc1nc2c(ncn2[C@@H]2O[C@H](COP(=O)(O)OP(=O)(O)O[C@H]3O[C@H](CO)[C@@H](O)[C@H](O)[C@H]3O)[C@@H](O)[C@H]2O)c(=O)[nH]1 [GTP-G, GDP-glucose]"
  result: "can also compete"
- molecule: "Nc1nc2c(ncn2[C@@H]2O[C@@H]3COP(=O)(O)O[C@H]3[C@H]2O)c(=O)[nH]1 [cyclic GMP]"
  result: "very poorly recognised"
- molecule: "Nc1nc2c(ncn2[C@@H]2O[C@H](CO)[C@@H](O)[C@H]2O)c(=O)[nH]1 [guanosine]"
  result: "very poorly recognised"
